- system_under_test: human uPAR (uPAR-Fc) (Homo sapiens)
- Construct: comprising amino acids Leu23-Arg303 according to UniProt entry Q03405.1; purchased R&D Systems 10378-UK-100
- Sequence (Q03405 23-303): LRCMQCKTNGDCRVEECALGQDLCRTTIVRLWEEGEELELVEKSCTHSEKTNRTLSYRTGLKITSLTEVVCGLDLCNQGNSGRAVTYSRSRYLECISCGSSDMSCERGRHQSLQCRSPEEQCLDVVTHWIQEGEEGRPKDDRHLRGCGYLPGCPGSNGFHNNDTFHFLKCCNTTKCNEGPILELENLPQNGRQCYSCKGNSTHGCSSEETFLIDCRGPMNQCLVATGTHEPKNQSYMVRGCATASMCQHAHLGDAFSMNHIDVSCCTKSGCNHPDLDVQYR
- assay: Surface plasmon resonance (SPR) assay, single cycle kinetics
- Format: binding
- particulars: pKD category for uPAR SPR activity assay; uPAR-Fc on Protein A-Chip, 25°C; read-out: pKD CAT (converted)
Where a SMILES comes first, the peptide text is derived from it. Bridges are numbered along the chain shown (N, C = ends). [ ]: non-standard residue; d: D form. The star is where a group is joined. DOTA = O=C(O)CN1CCN(CC(=O)O)CCN(CC(=O)*)CCN(CC(=O)O)CC1; Hyp = O=C(O)[C@@H]1C[C@@H](O)CN1; Cit = NC(=O)NCCC[C@H](N)C(=O)O; NMeC = CN[C@@H](CS)C(=O)O; Nva = CCC[C@H](N)C(=O)O
assay_readout: Kd

I'd like to know its Kd. The molecule in question is CCC[C@@H]1NC(=O)[C@H]([C@@H](C)CC)NC(=O)[C@@H]2C[C@@H](O)CN2C(=O)[C@@H]2CCCN2C(=O)[C@H](Cc2ccccc2)NC(=O)[C@H](Cc2ccc(O)cc2)NC(=O)[C@H](CCC(N)=O)NC(=O)[C@H](CCCNC(N)=O)NC(=O)[C@@H](N(C)C(=O)[C@H](CC(C)C)NC(=O)CN2CCN(CC(=O)O)CCN(CC(=O)O)CCN(CC(=O)O)CC2)CSSC[C@@H](C(N)=O)NC1=O [UPAR-142] ({DOTA}-L[NMeC][Cit]QYFP[Hyp]I[Nva]C-NH2; disulfide 2-11) 10 to 100 nM

* * *

- system_under_test: human uPAR (uPAR-Fc) (Homo sapiens)
- Construct: comprising amino acids Leu23-Arg303 according to UniProt entry Q03405.1; purchased R&D Systems 10378-UK-100
- assay: Surface plasmon resonance (SPR) assay, single cycle kinetics
- Format: binding
- particulars: pKD category for uPAR SPR activity assay; uPAR-Fc on Protein A-Chip, single cycle kinetics, 25°C; read-out: pKD CAT (converted)
*1 amine or outer side, *2 acyl side, *3 side chain or, on linkers, in order; H or OH if unused. Where a SMILES comes first, the peptide text is derived from it. Bridges are numbered along the chain shown (N, C = ends). [ ]: non-standard residue; d: D form. The star is where a group is joined. Oic = O=C(O)[C@@H]1C[C@@H]2CCCC[C@@H]2N1; Hyp = O=C(O)[C@@H]1C[C@@H](O)CN1; Pentanoyl(4-Me) = CC(C)CCC(=O)*; Cit = NC(=O)NCCC[C@H](N)C(=O)O; Cysteamide = C(CS[*:3])N[*:1]; Aze = O=C(O)[C@@H]1CCN1; Nva = CCC[C@H](N)C(=O)O; Pentanoyl = CCCCC(=O)*
assay_readout: Kd

# annotated cases, reported Kd shown
compound	system_under_test	Kd
CCCCC(=O)N[C@H]1CSSC[C@@H](C(N)=O)NC(=O)[C@H](CCC)NC(=O)[C@H]([C@@H](C)CC)NC(=O)[C@@H]2C[C@@H](O)CN2C(=O)[C@@H]2C[C@@H]3CCCC[C@@H]3N2C(=O)[C@H](Cc2ccccc2)NC(=O)[C@H](Cc2ccc(O)cc2)NC(=O)[C@H](CCC(N)=O)NC(=O)[C@H](CCCNC(=N)N)NC1=O [UPAR-387] (Pentanoyl-CRQYF[Oic][Hyp]I[Nva]C-NH2; disulfide 1-10)	human uPAR (uPAR-Fc) (Homo sapiens)	< 1.58 nM
CCCCC(=O)N[C@H]1CSSCCNC(=O)[C@H](CCC)NC(=O)[C@H]([C@@H](C)CC)NC(=O)[C@@H]2C[C@@H](O)CN2C(=O)[C@@H]2CCCN2C(=O)[C@H](Cc2ccccc2)NC(=O)[C@H](Cc2ccc(O)cc2)NC(=O)[C@H](CCC(N)=O)NC(=O)[C@H](CCCNC(=N)N)NC1=O [UPAR-481] (Pentanoyl-CRQYFP[Hyp]I[Nva]-Cysteamide; disulfide 1-C)	human uPAR (uPAR-Fc) (Homo sapiens)	< 1.58 nM

Read the next record carefully.
I'd like to know its Kd. The compound in question is CC[C@H](C)[C@@H]1NC(=O)[C@@H](C)NC(=O)[C@@H]2CCN2C(=O)[C@H](Cc2ccccc2)NC(=O)[C@H](Cc2ccc(O)cc2)NC(=O)[C@H](CCC(N)=O)NC(=O)[C@H](CCCNC(N)=O)NC(=O)[C@@H](NC(=O)CCC(C)C)CSSC[C@@H](C(N)=O)NC(=O)[C@H](CC(C)C)NC1=O [UPAR-426] ({Pentanoyl(4-Me)}-C[Cit]QYF[Aze][dA]ILC-NH2; disulfide 1-10) 1.58 to 10 nM
